Item-by-item account of pKd
measuredTarget: Galectin-3 (Homo sapiens (Human))
assayDetails: Fluorescence anisotropy assay, inhibition of galectin / fluorescein tagged saccharide probe interaction
pKd: −log10 of the molar value.

{"compound": "N#Cc1ncc(S[C@H]2O[C@H](CO)[C@H](O)[C@H](n3cc(-c4csc(O)n4)nn3)[C@H]2O)cc1Cl [Example 13]", "pKd": 5.10}
{"compound": "N#Cc1ncc(S[C@H]2O[C@H](CO)[C@H](O)[C@H](n3cc(-c4csc(O)n4)nn3)[C@H]2O)cc1Br [Example 15]", "pKd": 5.55}
{"compound": "OC[C@H]1O[C@H](Sc2cnc(C(F)(F)F)c(Br)c2)[C@H](O)[C@@H](n2cc(-c3nc(Cl)c(Cl)s3)nn2)[C@H]1O [Example 29]", "pKd": 7.16}
{"compound": "OC[C@H]1O[C@H](Sc2ccc(Cl)c(Cl)c2)[C@H](O)[C@@H](n2cc(-c3csc(Cl)n3)nn2)[C@H]1O [Example 7]", "pKd": 5.85}
{"compound": "OC[C@H]1O[C@H](Sc2ccc(Cl)c(Cl)c2)[C@H](O)[C@@H](n2cc(-c3csc(O)n3)nn2)[C@H]1O [Example 12]", "pKd": 5.07}
{"compound": "N#Cc1ccc(S[C@H]2O[C@H](CO)[C@H](O)[C@H](n3cc(-c4csc(O)n4)nn3)[C@H]2O)cc1Br [Example 22]", "pKd": 5.22}
{"compound": "N#Cc1ncc(Cl)cc1S[C@H]1O[C@H](CO)[C@H](O)[C@H](n2cc(-c3nc(Cl)cs3)nn2)[C@H]1O [Example 5]", "pKd": 6.66}

====

measuredTarget: UniProt:P17931
assayDetails: Fluorescence anisotropy assay, inhibition of galectin / fluorescein tagged saccharide probe interaction
Format: binding
Each entry below carries its reported Kd.

{"molecule": "OC[C@H]1O[C@H](Sc2cc(Cl)c(Cl)c(Cl)c2)[C@H](O)[C@@H](n2cc(-c3csc(O)n3)nn2)[C@H]1O [Example 20]", "measureUnit": "nM", "Kd": 6000}
{"molecule": "N#Cc1ncc(Br)cc1S[C@H]1O[C@H](CO)[C@H](O)[C@H](n2cc(-c3nc(Cl)cs3)nn2)[C@H]1O [Example 4]", "measureUnit": "nM", "Kd": 200}
{"molecule": "N#Cc1ncc(Br)cc1S[C@H]1O[C@H](CO)[C@H](O)[C@H](n2cc(-c3csc(O)n3)nn2)[C@H]1O [Example 14]", "measureUnit": "nM", "Kd": 2600}
{"molecule": "OC[C@H]1O[C@H](Sc2cc(Cl)c(Cl)cc2F)[C@H](O)[C@@H](n2cc(-c3csc(O)n3)nn2)[C@H]1O [Example 31]", "measureUnit": "nM", "Kd": 4600}
{"molecule": "CN(C)C(=O)c1ccc(Cl)cc1S[C@H]1OC(CO)[C@H](O)[C@H](n2cc(-c3csc(O)n3)nn2)C1O (some centres unmarked) [Example 32]", "measureUnit": "nM", "Kd": 2100}

====

measuredTarget: Galectin-3 (Homo sapiens (Human), UniProt P17931)
Sequence (P17931 whole entry): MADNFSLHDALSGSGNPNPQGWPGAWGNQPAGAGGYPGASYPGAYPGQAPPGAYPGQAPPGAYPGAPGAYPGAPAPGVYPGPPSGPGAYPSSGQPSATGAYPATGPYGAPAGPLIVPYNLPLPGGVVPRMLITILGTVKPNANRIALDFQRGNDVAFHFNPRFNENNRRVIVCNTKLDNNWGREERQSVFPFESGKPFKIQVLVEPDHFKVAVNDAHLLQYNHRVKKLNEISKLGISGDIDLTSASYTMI
assayDetails: Fluorescence anisotropy assay, inhibition of galectin / fluorescein tagged saccharide probe interaction

{"compound": "OC[C@H]1O[C@H](Sc2ccc(C(F)(F)F)c(Cl)c2)[C@H](O)[C@@H](n2cc(-c3csc(O)n3)nn2)[C@H]1O [Example 24]", "measuredTarget": "Galectin-3 (Homo sapiens (Human), UniProt P17931)", "measureUnit": "nM", "Kd": 6500}
{"compound": "OC[C@H]1O[C@H](Sc2cnc(C(F)(F)F)c(Br)c2)[C@H](O)[C@@H](n2cc(-c3nc(Br)cs3)nn2)[C@H]1O [Example 2]", "measuredTarget": "Galectin-3 (Homo sapiens (Human), UniProt P17931)", "measureUnit": "nM", "Kd": 580}
{"compound": "N#Cc1ncc(S[C@H]2O[C@H](CO)[C@H](O)[C@H](n3cc(-c4nc(Cl)cs4)nn3)[C@H]2O)cc1Br [Example 6]", "measuredTarget": "Galectin-3 (Homo sapiens (Human), UniProt P17931)", "measureUnit": "nM", "Kd": 250}
{"compound": "N#Cc1ncc(Cl)cc1S[C@H]1O[C@H](CO)[C@H](O)[C@H](n2cc(-c3csc(O)n3)nn2)[C@H]1O [Example 16]", "measuredTarget": "Galectin-3 (Homo sapiens (Human), UniProt P17931)", "measureUnit": "nM", "Kd": 2200}
{"compound": "CN(C)C(=O)c1ncc(Cl)cc1S[C@H]1OC(CO)[C@H](O)[C@H](n2cc(-c3csc(O)n3)nn2)C1O (stereo partly shown) [Example 33]", "measuredTarget": "Galectin-3 (Homo sapiens (Human), UniProt P17931)", "measureUnit": "nM", "Kd": 1700}
{"compound": "O=C(O)c1ncc(Cl)cc1S[C@H]1O[C@H](CO)[C@H](O)[C@H](n2cc(-c3csc(O)n3)nn2)[C@H]1O [Example 28]", "measuredTarget": "Galectin-3 (Homo sapiens (Human), UniProt P17931)", "measureUnit": "nM", "Kd": 5700}
{"compound": "OC[C@H]1O[C@H](Sc2cnc(C(F)(F)F)c(Br)c2)[C@H](O)[C@@H](n2cc(-c3nc(Cl)cs3)nn2)[C@H]1O [Example 1]", "measuredTarget": "Galectin-3 (Homo sapiens (Human), UniProt P17931)", "measureUnit": "nM", "Kd": 250}
{"compound": "OC[C@H]1O[C@H](Sc2cc(Br)c(F)c(Br)c2)[C@H](O)[C@@H](n2cc(-c3csc(O)n3)nn2)[C@H]1O [Example 21]", "measuredTarget": "Galectin-3 (Homo sapiens (Human), UniProt P17931)", "measureUnit": "nM", "Kd": 4600}
{"compound": "OC[C@H]1O[C@H](Sc2cc(Cl)c(F)c(Cl)c2)[C@H](O)[C@@H](n2cc(-c3csc(O)n3)nn2)[C@H]1O [Example 18]", "measuredTarget": "Galectin-3 (Homo sapiens (Human), UniProt P17931)", "measureUnit": "nM", "Kd": 9700}
{"compound": "OC[C@H]1O[C@H](Sc2cnc(C(F)(F)F)c(Br)c2)[C@H](O)[C@@H](n2cc(-c3csc(O)n3)nn2)[C@H]1O [Example 23]", "measuredTarget": "Galectin-3 (Homo sapiens (Human), UniProt P17931)", "measureUnit": "nM", "Kd": 3100}
{"compound": "N#Cc1ncc(S[C@H]2O[C@H](CO)[C@H](O)[C@H](n3cc(-c4nc(Cl)cs4)nn3)[C@H]2O)cc1Cl [Example 3]", "measuredTarget": "Galectin-3 (Homo sapiens (Human), UniProt P17931)", "measureUnit": "nM", "Kd": 420}
{"compound": "Cc1ccc(S[C@H]2O[C@H](CO)[C@H](O)[C@H](n3cc(-c4csc(O)n4)nn3)[C@H]2O)cc1Cl [Example 26]", "measuredTarget": "Galectin-3 (Homo sapiens (Human), UniProt P17931)", "measureUnit": "nM", "Kd": 6600}
{"compound": "OC[C@H]1O[C@H](Sc2cnc(C(F)(F)F)c(Cl)c2)[C@H](O)[C@@H](n2cc(-c3csc(O)n3)nn2)[C@H]1O [Example 17]", "measuredTarget": "Galectin-3 (Homo sapiens (Human), UniProt P17931)", "measureUnit": "nM", "Kd": 2800}
